test system: c-Myc; test: c-Myc immunofluorescence assay; format: cell-based, human; conditions: A549 cells, 24 hours treatment, anti-c-Myc immunofluorescence
property.name: Myc Efficacy (−LogEC50)

>  <compound>
NC(CO)c1ccc(-c2cn3c(n2)sc2cc(C(=O)NCCCN4CCC(F)CC4)ccc23)c(F)c1 (stereo not shown)

>  <target.desc>
c-Myc

>  <Myc Efficacy (−LogEC50)>
+++ (+++ ≥6)

$$$$
>  <compound>
CNC(=O)c1ccc(-c2cn3c(n2)sc2cc(C(=O)NC[C@H]4COCCO4)ccc23)cc1

>  <target.desc>
c-Myc

>  <Myc Efficacy (−LogEC50)>
− (− ≤3)

$$$$
>  <compound>
CNC(=O)c1ccc(-c2cn3c(n2)sc2cc(C(=O)NCCCN4CCC(F)CC4)ccc23)cc1

>  <target.desc>
c-Myc

>  <Myc Efficacy (−LogEC50)>
++ (++ ≥5 and <6)

$$$$
>  <compound>
O=C(NCCCN1CCC(F)CC1)c1ccc2c(c1)sc1nc(-c3cc4c(cc3F)CNC4)cn12

>  <target.desc>
c-Myc

>  <Myc Efficacy (−LogEC50)>
+++ (+++ ≥6)

$$$$
>  <compound>
CNC(=O)c1ccc(-c2cn3c(n2)sc2cc(C(=O)N[C@H]4CCCCN(C)C4=O)ccc23)cc1

>  <target.desc>
c-Myc

>  <Myc Efficacy (−LogEC50)>
+ (+ >3 and <5)

$$$$
>  <compound>
CCc1ccc(-c2cn3c(n2)sc2cc(C(=O)NCCCN(CC)CC)ccc23)cc1

>  <target.desc>
c-Myc

>  <Myc Efficacy (−LogEC50)>
++ (++ ≥5 and <6)

$$$$

Could you share which Myc Efficacy (−LogEC50) value was measured for O=C(NCCCN1CCC(F)CC1)c1cc2sc3nc(-c4ccc([C@@H]5CCCN5)cc4F)cn3c2cn1 [Compound 509S] ?
+++ (+++ ≥6)

Request the reported Myc Efficacy (−LogEC50) associated with CCN(CC)CCCNC(=O)c1ccc2c(c1)sc1nc(-c3ccc(C(=O)NC4CCN(C)C4)cc3)cn12 (stereo not shown)
++ (++ ≥5 and <6)

Name the reported Myc Efficacy (−LogEC50) value associated with the compound `O=C(NCCCN1CCC(F)CC1)c1ccc2c(c1)sc1nc(-c3ccc([C@H]4CCCN4)cc3F)cn12`
+++ (+++ ≥6)

What does the record list as Myc Efficacy (−LogEC50) for `CNC(=O)c1ccc(-c2cn3c(n2)sc2cc(C(=O)NCCCOC)ccc23)cc1` ?
− (− ≤3)

Where do these numbers come from? They come from patent US12404283B2.
